Please provide measured activity at 15 µM for the entries that follow.
tested system: B. taurus (heart) complex I (Bos taurus, UniProt P03887+P17694+P42026)
Sequence (P03887 whole entry): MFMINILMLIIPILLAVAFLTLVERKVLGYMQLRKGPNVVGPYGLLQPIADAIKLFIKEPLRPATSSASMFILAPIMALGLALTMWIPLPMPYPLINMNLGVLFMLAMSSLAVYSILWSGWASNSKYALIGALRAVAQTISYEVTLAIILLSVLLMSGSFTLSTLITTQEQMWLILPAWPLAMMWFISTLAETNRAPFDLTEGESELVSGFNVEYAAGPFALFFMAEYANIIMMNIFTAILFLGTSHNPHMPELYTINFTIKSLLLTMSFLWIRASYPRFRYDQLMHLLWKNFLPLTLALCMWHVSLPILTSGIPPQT
Sequence (P17694 34-463): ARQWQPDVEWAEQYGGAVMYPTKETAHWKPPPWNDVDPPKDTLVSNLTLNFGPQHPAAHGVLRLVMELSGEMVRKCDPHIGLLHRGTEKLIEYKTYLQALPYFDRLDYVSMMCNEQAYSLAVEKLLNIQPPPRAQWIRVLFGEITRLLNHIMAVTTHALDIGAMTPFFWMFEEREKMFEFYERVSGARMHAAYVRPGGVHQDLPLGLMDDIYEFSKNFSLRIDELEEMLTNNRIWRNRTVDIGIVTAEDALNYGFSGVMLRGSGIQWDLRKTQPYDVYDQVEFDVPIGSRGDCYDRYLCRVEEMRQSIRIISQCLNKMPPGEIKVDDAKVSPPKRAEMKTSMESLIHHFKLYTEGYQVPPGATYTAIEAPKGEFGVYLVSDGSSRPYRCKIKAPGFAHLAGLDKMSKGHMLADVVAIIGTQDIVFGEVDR
Sequence (P42026 38-216): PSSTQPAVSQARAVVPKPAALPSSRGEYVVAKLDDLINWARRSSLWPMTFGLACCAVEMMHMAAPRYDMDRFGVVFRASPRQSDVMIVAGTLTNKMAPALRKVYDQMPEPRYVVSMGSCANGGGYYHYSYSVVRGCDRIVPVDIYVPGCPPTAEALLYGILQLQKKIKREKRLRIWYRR
experimental protocol: biochemical
Assay type: biochemical
condition info: B. taurus; dose 15 µM; Mean of replicates; read-out: Complex I activity, dose-response data

# value lookup — system B. taurus (heart) complex I (Bos taurus, UniProt P03887+P17694+P42026), readout activity at 15 µM, item CC(C)Cc1ccc(C(C)c2nc3ccccc3n2C)cc1 (stereo not shown)
79.4%

# value lookup — system B. taurus (heart) complex I (Bos taurus, UniProt P03887+P17694+P42026), readout activity at 15 µM, item COc1cc2c(cc1OC)C(/C=C/c1ccc(N(C)C)cc1)=NCC2
76.4%

# value lookup — system B. taurus (heart) complex I (Bos taurus, UniProt P03887+P17694+P42026), readout activity at 15 µM, item COc1cc2c(cc1OC)C(C(C)c1ccc(CC(C)C)cc1)=NCC2 (stereo not shown)
36.5%

# value lookup — system B. taurus (heart) complex I (Bos taurus, UniProt P03887+P17694+P42026), readout activity at 15 µM, item COc1cc2c(cc1OC)C(c1ccc(-c3ccc(Cl)c(Cl)c3)o1)=NCC2
43.4%

====

System: C. elegans
experimental protocol: C. elegans chemical screens of RIKEN NPD libraries at 50 μM (hit identification in KCN survival and development/viability assays)
Format: cell-based, Caenorhabditis elegans
condition info: screened at 50 μM in triplicate; […]; KCN = KCN survival assay, Dev. & Viability = development/viability assay
experimental readout: Hit Type

| compound | Hit Type |
| --- | --- |
| CCCC/C=C\C/C=C\CCCCCCCCc1cccc(O)c1C(=O)O [6-heptadeca-9Z,12Z-dienyl salicylic acid] | KCN |
| CN[C@@H]1C[C@H]2O[C@@](C)([C@@H]1OC)n1c3ccccc3c3c4c(c5c6ccccc6n2c5c31)C(=O)NC4 [Staurosporine, reference compound] | Dev. & Viability |
| COc1cc2c(cc1OC)C(c1ccc(-c3ccc(Cl)c(Cl)c3)o1)=NCC2 | KCN |
| CC[C@@]1(O)C(=O)OCc2c1cc1n(c2=O)Cc2cc3ccccc3nc2-1 [Camptothecin, reference compound] | Dev. & Viability |
| CCCC[C@@]1(OC(=O)CCC(=O)O)CC[C@]2(CC[C@H](C)[C@@H](C/C=C(C)/C=C/[C@H](O)[C@@H](C)/C=C/C(=O)O)O2)O[C@H]1/C=C/C(C)=C/C(=O)O [Reveromycin A, reference compound] | Dev. & Viability |

Would you mind telling me what Hit Type value was observed for COc1cc2c(cc1OC)C(C(C)c1ccc(CC(C)C)cc1)=NCC2 (stereo not drawn) ?
KCN

Would you mind telling me what Hit Type value was observed for COC(=O)Nc1nc2ccc(C(=O)c3cccs3)cc2[nH]1 [Nocodazole, reference compound] ?
Dev. & Viability

Would you mind telling me what Hit Type value was observed for CC(C)Cc1ccc(C(C)c2nc3ccccc3n2C)cc1 (stereo not drawn) ?
KCN

Would you mind telling me what Hit Type value was observed for COc1cc2c(cc1OC)C(/C=C/c1ccc(N(C)C)cc1)=NCC2 ?
KCN

====

Please provide measured activity at 0.013 µM for the entries that follow.
tested system: C. elegans (N2) complex I (NADH:ubiquinone oxidoreductase) (Caenorhabditis elegans, UniProt P24887+Q93873+Q94360)
Sequence (Q94360 17-199): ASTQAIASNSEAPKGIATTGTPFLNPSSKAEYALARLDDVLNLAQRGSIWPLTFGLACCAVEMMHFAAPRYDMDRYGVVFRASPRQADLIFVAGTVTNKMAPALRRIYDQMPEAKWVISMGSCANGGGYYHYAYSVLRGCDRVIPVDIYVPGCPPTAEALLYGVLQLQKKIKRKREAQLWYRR
Sequence (P24887 whole entry): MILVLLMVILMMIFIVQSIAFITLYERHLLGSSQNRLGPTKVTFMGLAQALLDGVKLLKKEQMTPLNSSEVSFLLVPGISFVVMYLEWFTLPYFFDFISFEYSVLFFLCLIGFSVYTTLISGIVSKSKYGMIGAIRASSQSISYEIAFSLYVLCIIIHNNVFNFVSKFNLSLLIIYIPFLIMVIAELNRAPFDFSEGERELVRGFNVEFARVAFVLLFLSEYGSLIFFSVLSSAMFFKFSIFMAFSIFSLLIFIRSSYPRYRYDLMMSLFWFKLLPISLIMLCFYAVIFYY
Sequence (Q93873 31-482): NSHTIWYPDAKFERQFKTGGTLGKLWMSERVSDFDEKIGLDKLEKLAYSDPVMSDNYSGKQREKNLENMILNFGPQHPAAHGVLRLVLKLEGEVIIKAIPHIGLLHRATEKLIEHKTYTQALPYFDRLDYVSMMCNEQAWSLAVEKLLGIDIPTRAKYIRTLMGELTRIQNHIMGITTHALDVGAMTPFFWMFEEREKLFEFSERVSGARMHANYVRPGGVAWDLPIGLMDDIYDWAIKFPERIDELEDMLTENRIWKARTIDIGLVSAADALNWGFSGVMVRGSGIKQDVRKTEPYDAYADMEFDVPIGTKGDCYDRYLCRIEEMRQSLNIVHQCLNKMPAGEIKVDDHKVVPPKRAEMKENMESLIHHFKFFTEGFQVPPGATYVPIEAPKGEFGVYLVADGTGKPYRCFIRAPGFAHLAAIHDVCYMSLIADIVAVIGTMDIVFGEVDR
experimental protocol: biochemical
Format: biochemical
condition info: Dose 0.013 µM; read-out: C. elegans mitochondrial complex I activity
Dear colleague, please return just the value in %, with no unit written.

Would you mind telling me what activity at 0.013 µM value was observed for Cc1ccccc1OCCCCn1cnc2ccccc21 [Compound 7732524] ?
120

Would you mind telling me what activity at 0.013 µM value was observed for Clc1ccc(OCCn2cnc3ccccc32)c(Cl)c1 [Compound 7221649] ?
101

Would you mind telling me what activity at 0.013 µM value was observed for Cc1ccc(OCCn2cnc3ccccc32)c(C)c1 [Compound 7706808] ?
107

Would you mind telling me what activity at 0.013 µM value was observed for Clc1ccc(Cn2cnc3ccccc32)cc1Cl [Compound 5571325] ?
92.4

Would you mind telling me what activity at 0.013 µM value was observed for Cc1ccc(SCCCCn2cnc3ccccc32)cc1 [Compound 7925333] ?
91.2

====

tested system: C. elegans (N2) complex I (NADH:ubiquinone oxidoreductase) (Caenorhabditis elegans, UniProt P24887+Q93873+Q94360)
experimental protocol: biochemical
Assay type: biochemical
condition info: Dose 0.013 µM; read-out: C. elegans mitochondrial complex I activity
experimental readout: activity at 0.013 µM (%)
Dear colleague, please return just the value in %, with no unit written.

Would you mind telling me what activity at 0.013 µM value was observed for Cc1ccc(SCCCn2cnc3ccccc32)cc1 [Compound 7926035] ?
96.9

Would you mind telling me what activity at 0.013 µM value was observed for Cc1cccc(OCCn2c(C)nc3ccccc32)c1 [Compound 6285199] ?
90.6

Would you mind telling me what activity at 0.013 µM value was observed for CCCn1c(COc2ccc(C)cc2)nc2ccccc21 [Compound 6944471] ?
108

Would you mind telling me what activity at 0.013 µM value was observed for Cc1nc2ccccc2n1CCOc1ccccc1 [Compound 5550112] ?
87.2

Would you mind telling me what activity at 0.013 µM value was observed for Clc1ccccc1OCCCCn1cnc2ccccc21 [Compound 7925804] ?
96.2

Would you mind telling me what activity at 0.013 µM value was observed for Nc1nc2ccccc2n1CCOc1ccc(Br)cc1 [Compound 5842535] ?
88.3

Would you mind telling me what activity at 0.013 µM value was observed for FC(F)(F)c1cccc(OCCCCn2cnc3ccccc32)c1 [Compound 7925004] ?
103

Would you mind telling me what activity at 0.013 µM value was observed for Cc1ccc(CSCc2nc3ccccc3[nH]2)cc1 [Compound 7121781] ?
104

Would you mind telling me what activity at 0.013 µM value was observed for Clc1ccc(SCCCCn2cnc3ccccc32)cc1 [Compound 7925515] ?
90.5

Would you mind telling me what activity at 0.013 µM value was observed for CC(C)Oc1cccc(OCCn2cnc3ccccc32)c1 [Compound 7926496] ?
88.3

====

Please provide measured remaining activity at 0.125 µM for the entries that follow.
tested system: C. elegans (N2) complex I (NADH:ubiquinone oxidoreductase) (Caenorhabditis elegans, UniProt P24887+Q93873+Q94360)
experimental protocol: biochemical
Assay type: biochemical
condition info: 0.125 µM; wild-type C. elegans mitochondria; mean of replicates; read-out: percent (%) in vitro complex I activity relative to solvent control
Dear colleague, please return just the value in %, with no unit written.

Would you mind telling me what remaining activity at 0.125 µM value was observed for COc1cc2c(cc1OC)C(/C=C/c1ccc(N(C)C)cc1)=NCC2 ?
93.1

Would you mind telling me what remaining activity at 0.125 µM value was observed for CC(C)Cc1ccc(C(C)c2nc3ccccc3n2C)cc1 (stereo not shown) ?
102

Would you mind telling me what remaining activity at 0.125 µM value was observed for COc1cc2c(cc1OC)C(C(C)c1ccc(CC(C)C)cc1)=NCC2 (stereo not shown) ?
92.7

Would you mind telling me what remaining activity at 0.125 µM value was observed for COc1cc2c(cc1OC)C(c1ccc(-c3ccc(Cl)c(Cl)c3)o1)=NCC2 ?
96.8

Would you mind telling me what remaining activity at 0.125 µM value was observed for COC(=O)Nc1nc2ccc(C(=O)c3ccccc3)cc2[nH]1 [mebendazole, reference compound] ?
104

Would you mind telling me what remaining activity at 0.125 µM value was observed for COC(=O)Nc1nc2ccc(Sc3ccccc3)cc2[nH]1 [fenbendazole, reference compound] ?
103

Would you mind telling me what remaining activity at 0.125 µM value was observed for COc1ccc(Cc2nccc3cc(OC)c(OC)cc23)cc1OC [Papaverine, reference compound] ?
95.7

====

tested system: C. elegans (N2) complex I (NADH:ubiquinone oxidoreductase) (Caenorhabditis elegans, UniProt P24887+Q93873+Q94360)
experimental protocol: biochemical
Assay type: biochemical
condition info: dose 15 µM; wild-type C. elegans; mean of replicates; read-out: in vitro complex I activity relative to solvent control, Mean
Threshold 3%. remaining activity at 15 µM below it: TRUE. remaining activity at 15 µM at it or above: FALSE.

Dear colleague, could you confirm whether remaining activity at 15 µM of Cc1ccccc1OCCCCn1cnc2ccccc21 falls below 3%? Thanks.
TRUE

Dear colleague, could you confirm whether remaining activity at 15 µM of C=C(C)[C@H]1Cc2c(ccc3c2O[C@@H]2COc4cc(OC)c(OC)cc4[C@@H]2C3=O)O1 [Rotenone, reference compound] falls below 3%? Thanks.
FALSE

Dear colleague, could you confirm whether remaining activity at 15 µM of COC(=O)Nc1nc2ccc(Sc3ccccc3)cc2[nH]1 [fenbendazole, reference compound] falls below 3%? Thanks.
FALSE

Dear colleague, could you confirm whether remaining activity at 15 µM of Cc1nc2ccccc2n1Cc1ccc(Cl)cc1 falls below 3%? Thanks.
FALSE

Dear colleague, could you confirm whether remaining activity at 15 µM of CC(C)(C)c1ccc(CCOc2ncnc3ccccc23)cc1 [Fenazaquin, reference compound] falls below 3%? Thanks.
TRUE

Measured values drawn from paper PMC11079024 for this set.
